B1: HDV Ribozyme (parent)
chain: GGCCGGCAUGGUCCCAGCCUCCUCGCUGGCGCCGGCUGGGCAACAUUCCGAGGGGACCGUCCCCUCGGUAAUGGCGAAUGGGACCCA

Variants of: B1
Experiment: self-cleavage, relative activity (ratio to wild type); higher = more cleavage; co-transcriptional
Reported self-cleavage is given for each of the following variants.
PROPERTY: self-cleavage

[[record]]
mutant_code = "A51U G59A"
property = "self-cleavage"
reading = 0.889

[[record]]
mutant_code = "C7U C33U"
property = "self-cleavage"
reading = 0.672

[[record]]
mutant_code = "C30A U47G"
property = "self-cleavage"
reading = 0.682

[[record]]
mutant_code = "C21G A51C"
property = "self-cleavage"
reading = 0

[[record]]
mutant_code = "A51U G74U"
property = "self-cleavage"
reading = 0.369

[[record]]
mutant_code = "C75U G80U"
property = "self-cleavage"
reading = 0.178

[[record]]
mutant_code = "A56C C58U"
property = "self-cleavage"
reading = 1.07

[[record]]
mutant_code = "G39A C57G"
property = "self-cleavage"
reading = 0.591

[[record]]
mutant_code = "C36G C86U"
property = "self-cleavage"
reading = 0.0437

[[record]]
mutant_code = "G76A A87C"
property = "self-cleavage"
reading = 1.03

[[record]]
mutant_code = "C30G G59C"
property = "self-cleavage"
reading = 0.108

[[record]]
mutant_code = "C63A G73U"
property = "self-cleavage"
reading = 0.3

[[record]]
mutant_code = "C22U G67C"
property = "self-cleavage"
reading = 0.535

[[record]]
mutant_code = "G50U A77U"
property = "self-cleavage"
reading = 0.62

[[record]]
mutant_code = "G2A C84G"
property = "self-cleavage"
reading = 0.0391

[[record]]
mutant_code = "C32A C44U"
property = "self-cleavage"
reading = 0.0875

[[record]]
mutant_code = "U12C G80U"
property = "self-cleavage"
reading = 0.18

[[record]]
mutant_code = "G39C G73U"
property = "self-cleavage"
reading = 0.106

[[record]]
mutant_code = "U20G C75U"
property = "self-cleavage"
reading = 0.0875

[[record]]
mutant_code = "C26G G34C"
property = "self-cleavage"
reading = 0

[[record]]
mutant_code = "C41G C62U"
property = "self-cleavage"
reading = 0.815

[[record]]
mutant_code = "C44A A71C"
property = "self-cleavage"
reading = 0.332

